The measurements presented in this section are drawn from PubChem BioAssay (Tox21).

Assay: qHTS RealTime-Glo MT Cell Viability Assay in HepG2 cells - 8 hour (AID 1224873); also: nearly all actives have a fitted effect of over 55% in size
Settings: RealTime-Glo luminescence; series mostly up to 76.8 µM
Inconclusive results are not listed. The source made the active and inactive calls. Calls follow the shape of the dose curve; as a rule, active = well fitted cell-killing curve with a large enough effect in the repeat runs; inconclusive = weak or mixed curves; inactive = flat fitted curve, though single readings scatter.
MEASUREMENT TYPE: outcome

Some solved entries appear below for comparison.
| COMPOUND | OBSERVED RESULT |
| --- | --- |
| Nc1ccccc1 | inactive |
| O=C(O)C(Cl)(Cl)Cl | inactive |
| CCCCCCCCCCCC(=O)O | inactive |
| CC[N+](CC)(CC)CC | inactive |
| CCC[N+]1(C)CCCC1 | inactive |

Query :: Which outcome is reported for this compound? CC[n+]1ccccc1
Result :: inactive

Query :: Next record, please: Oc1cccc2cccnc12
Result :: inactive

Query :: Next: N#CS
Result :: inactive

Query :: Queued: O=C(O)CCl
Result :: inactive

Query :: Param item: Oc1ccccc1-c1ccccc1
Result :: inactive

Query :: And what about the compound O=C(O)CC(O)(CC(=O)O)C(=O)O ?
Result :: inactive

Query :: And what about the compound CCCC[n+]1ccccc1C ?
Result :: inactive

Query :: CCCCn1cc[n+](C)c1C , same question.
Result :: inactive

Query :: // repeat for CCCCCCCCn1cc[n+](C)c1 and report
Result :: inactive

Query :: Repeat with CCCCCCCCCCn1cc[n+](C)c1
Result :: inactive

Query :: Quick one: COP(=O)(OC)C(O)C(Cl)(Cl)Cl (stereo not drawn)
Result :: inactive

Query :: Another compound to check: Nc1ccc(Cl)cc1
Result :: inactive

Query :: Item: CC[N+]1(C)CCCC1
Result :: inactive

* * *

Test: qHTS assay to identify small molecule agonists of the endoplasmic reticulum stress response signaling pathway - cell viability counter screen (AID 1159517);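 also: HeLa cells carrying an ER stress response element beta-lactamase reporter; nearly all actives have a fitted effect of over 50% in size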
Conditions: ESRE-bla HeLa viability, CellTiter-Glo luminescence, 5 h; series mostly up to 61 µM
Text: U.S. Tox21 Program National Center for Advancing Translational Sciences [NCATS] NIH Chemical Genomics Center [NCGC] U.S. Environmental Protection Agency [EPA] National Institutes of Environmental Health Sciences [NIEHS] National Toxicology Program [NTP] U.S. Food and Drug Administration [FDA] Tox21 Assay Overview: Endoplasmic Reticulum (ER) plays an important role in cellular signaling, protein folding/maturation, stress response, lipid biosynthesis, calcium storage and release etc. […]
Results filed as inconclusive are left out. Activity calls are given as the source filed them. Calls follow the shape of the full dose curve.
MEASUREMENT TYPE: outcome

| COMPOUND | OBSERVED RESULT |
| --- | --- |
| CCC[N+]1(C)CCCCC1 | inactive |
| CCOP(=S)(OCC)Oc1ccc2c(C)c(Cl)c(=O)oc2c1 | inactive |
| O=C(O)COc1ccc(Cl)cc1Cl | inactive |
| Nc1ccc(-c2ccc(N)cc2)cc1 | inactive |
| COP(=O)(OC)OC=C(Cl)Cl | inactive |
| O=C(O)C(Cl)(Cl)Cl | inactive |
| COP(=O)(OC)C(O)C(Cl)(Cl)Cl (stereo not drawn) | inactive |

Alright, here's another compound for you.
Query :: // lookup outcome for CCCCCCCCCCCCOS(=O)(=O)O
Result :: inactive

* * *

Test: qHTS assay to identify small molecule antagonists of the sonic hedgehog signaling (Shh) pathway (AID 1259369); also: nearly all actives have a fitted effect of over 45% in size
Conditions: NIH/3T3 Gli1-Luc reporter, Shh antagonist, luminescence 24 h; series mostly up to 92.4 µM
Records with an inconclusive call do not appear. Calls of active or inactive are those of the source. The call rests on the fitted dose curve.
Hi there, use one of these labels in your reply, thanks! active, inactive

| SMILES REPR | DISCRETE LABEL |
| --- | --- |
| O=c1[nH]c(=O)n(Cl)c(=O)n1Cl | inactive |
| COc1ccccc1N | inactive |
| O=C(O)c1ccccc1O | inactive |

Below: the item to evaluate.
Query :: Hi, do you know how O=C(O)c1nc(Cl)ccc1Cl came out in this test?
Result :: inactive
